// data source = patent US5591735A

Tested on: anterior tibial muscle (musculus tibialis anterior)
Experiment: In vivo effect on the anterior tibial muscle of the guinea-pig
Conditions: Cavia porcellus, iv
Where a name gives a salt, the structure may show the parent alone.
Item-by-item account of ED90
Reported property: ED90 (mg/kg)

Compound	Reported property	Unit annotation	Measured
CC(=O)O[C@H]1C[C@@H]2CC[C@@H]3[C@H](CC[C@@]4(C)[C@H]3C[C@H](N3CC[N+](C)(C)CC3)[C@@H]4OC(C)=O)[C@@]2(C)C[C@@H]1N1CC[N+](C)(C)CC1.[Br-].[Br-] [Pipecuronium bromide]	ED90	mg/kg	0.006
CC(=O)O[C@H]1C[C@@H]2CC[C@@H]3[C@H](CC[C@@]4(C)[C@H]3C[C@H]([N+]3(C)CCCCC3)[C@@H]4OC(C)=O)[C@@]2(C)C[C@@H]1[N+]1(C)CCCCC1 [Pancuronium bromide]	ED90	mg/kg	0.015
CC(=O)O[C@H]1C[C@@H]2CC[C@@H]3[C@H](CC[C@@]4(C)[C@H]3C[C@H]([N+]3(C)CCCCC3)[C@@H]4OC(C)=O)[C@@]2(C)C[C@@H]1N1CCCCC1 [Vecuronium bromide, hydrochloride]	ED90	mg/kg	0.011
C=CC[N+]1([C@H]2C[C@H]3[C@@H]4CC[C@H]5C[C@H](OC(C)=O)[C@@H](N6CCC7(CC6)OCCO7)C[C@]5(C)[C@H]4CC[C@]3(C)[C@H]2OC(C)=O)CCCC1.[Br-]	ED90	mg/kg	0.048
